System: NCI-H226 lung
Assay: NCI-60 one-dose screen, 48 h (100 = growth as untreated, 0 = no growth, -100 = all killed)
Conditions: 10 µM unless noted
Compounds without any hit were thinned out: in the full panel of roughly 83,000, 20% have a hit.
reported.endpoint: growth (%)

1) Clc1ccc2c(c1)nnn1c3ncccc3c(Br)c21 :: 90.1
2) CC1=C[S+](c2ccccc2)c2cccc3cc4ccccc4c1c23 (stereo not given) :: -21.7
3) CCCCCC/C=N/Nc1ccc([N+](=O)[O-])cn1 :: 99.1
4) C=C1C(=O)O[C@H]2[C@H]1CC/C(COC(=O)c1ccc(C#N)cc1)=C\CC[C@@]1(C)O[C@@H]21 :: -0.563
5) CC1(C)N=C(N)N=C(N)N1c1ccc(OCC(=O)Nc2ccccc2)c(Cl)c1 :: 99.7

Each recorded value in this set is attributed to PubChem BioAssay (NCI).
